Data origin, for the record: patent US20210380702A1

Molecular target: T1, recombinant cynomolgus monkey PD-L1 with a C-terminal myc-myc-hexahistidine tag (cynomolgus monkey (Macaca fascicularis))
T1 construct: also called MfPD-L1-MMH; MfPD-L1-MMH Monomer
T1 sequence (chain, as listed by the source limits assumed): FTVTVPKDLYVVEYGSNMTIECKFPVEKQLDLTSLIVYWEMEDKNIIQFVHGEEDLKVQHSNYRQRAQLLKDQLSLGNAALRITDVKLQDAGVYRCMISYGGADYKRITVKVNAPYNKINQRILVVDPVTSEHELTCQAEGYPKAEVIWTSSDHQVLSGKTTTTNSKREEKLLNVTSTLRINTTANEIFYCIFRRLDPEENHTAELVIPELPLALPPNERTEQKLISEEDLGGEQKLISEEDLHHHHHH
Experiment: SPR (Biacore), mAb captured, 25C
Readings of Kd for the listed binders
Property measured: Kd (nM)

# Binder, Property measured, Observed measurement
rows = [
    ("H1H9336P (antibody, human IgG1, V domains shown) VH: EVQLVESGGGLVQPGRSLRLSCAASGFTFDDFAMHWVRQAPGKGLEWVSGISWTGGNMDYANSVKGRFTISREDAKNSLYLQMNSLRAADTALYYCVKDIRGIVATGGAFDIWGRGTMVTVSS VL: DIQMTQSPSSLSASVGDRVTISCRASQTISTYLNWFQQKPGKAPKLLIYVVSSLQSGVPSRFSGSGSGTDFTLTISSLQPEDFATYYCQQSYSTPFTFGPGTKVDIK", "Kd", 0.876),
    ("H2aM8314N (antibody, mouse IgG2, V domains shown, also called H2M8314N) VH: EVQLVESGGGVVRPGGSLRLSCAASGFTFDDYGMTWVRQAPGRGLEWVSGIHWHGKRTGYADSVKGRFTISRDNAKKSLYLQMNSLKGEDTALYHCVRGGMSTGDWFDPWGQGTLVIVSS VL: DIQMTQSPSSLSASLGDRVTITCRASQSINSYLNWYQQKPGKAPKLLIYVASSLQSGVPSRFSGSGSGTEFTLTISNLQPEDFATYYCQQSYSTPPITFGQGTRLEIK", "Kd", 0.0724),
    ("H1H9329P (antibody, human IgG1, V domains shown) VH: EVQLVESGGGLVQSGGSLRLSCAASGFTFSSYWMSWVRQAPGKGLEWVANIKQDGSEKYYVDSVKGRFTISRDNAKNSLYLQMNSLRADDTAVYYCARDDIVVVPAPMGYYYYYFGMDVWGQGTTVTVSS VL: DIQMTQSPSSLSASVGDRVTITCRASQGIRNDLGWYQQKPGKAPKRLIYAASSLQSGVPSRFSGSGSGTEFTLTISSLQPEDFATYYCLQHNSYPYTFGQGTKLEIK", "Kd", 76.9),
    ("H2aM8321N (antibody, mouse IgG2, V domains shown, also called H2M8321N) VH: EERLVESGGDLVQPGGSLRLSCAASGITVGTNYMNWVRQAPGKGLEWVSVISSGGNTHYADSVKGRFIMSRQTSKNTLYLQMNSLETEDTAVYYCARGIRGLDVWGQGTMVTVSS VL: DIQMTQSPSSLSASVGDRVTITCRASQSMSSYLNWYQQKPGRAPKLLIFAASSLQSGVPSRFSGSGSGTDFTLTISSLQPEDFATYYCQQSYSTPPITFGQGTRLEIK", "Kd", 29.9),
    ("H2aM8310N (antibody, mouse IgG2, V domains shown, also called H2M8310N) VH: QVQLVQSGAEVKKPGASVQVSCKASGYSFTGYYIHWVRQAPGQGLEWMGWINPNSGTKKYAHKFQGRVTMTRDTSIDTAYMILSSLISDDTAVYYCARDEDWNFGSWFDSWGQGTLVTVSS VL: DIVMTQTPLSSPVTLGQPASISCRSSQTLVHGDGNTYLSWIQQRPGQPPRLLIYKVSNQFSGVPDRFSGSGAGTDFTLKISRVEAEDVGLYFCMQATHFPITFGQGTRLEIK", "Kd", 2.97),
]
